Measured values drawn from the nanobody polyreactivity screen of Harvey et al. (2022) for this set.

test: yeast display, Sf9 membrane polyspecificity reagent, FACS + sequencing; frameworks hold sequencing errors
measured-attribute: polyreactivity (PSR sort gate)

residue-codes	measured-attribute	value-reported
QLQLVESGGGLVQAGGRLRLSCAASGLTFQYNAMGWYRQAPGKERELVASINSGGSTDYADSVKGRFTISRDNAKNTVYLQMNRLKQEDTAVYYCASSGYWYSASYGYEYWGQGTQVTVSS	polyreactivity (PSR sort gate)	low polyreactivity
QVQLVESWAGLVQAGGRLRLSCAASGSSFQVYAMGWYRQAPGKERELVAAISGDGGSTYYADSVKGRFTISRDNAKNTVYLQMNSLKPEDTAVYYCAARGLFRYTDYGYWGQGTQVTVST	polyreactivity (PSR sort gate)	low polyreactivity
QVQLVESGGGLVQAGGSLRLSCAASGRTFYTYAMGLYRQAPGNERELVATITSGGSTYYADSVKGRFTISRDNAKNTVYLQMNSLKPEDTAVYYCARRRRESRQDGDYWVQGTQVTVSS	polyreactivity (PSR sort gate)	high polyreactivity
QFQLVESGGGVVQAGGSLRLSCAASGSIIYVNAMGWYRQAPGKERELVAAINYSGDSTYYADSVKGRFTISRDNAKNTVYLQMNSLKPEDTAVYYCAADIYVYYAPVYQYYWYDSWGQGTQVTVSS	polyreactivity (PSR sort gate)	high polyreactivity

Fill in the blank: the reported polyreactivity (PSR sort gate) of QVQLVESGGGLVQAGGSLRLSCAASGITFHEYAMVWYRQAPGKERELVAAISASGGTTYYADSVKGRFTISRDNAKNTVYLQMNSLKPEDTAVYYCAALPLYITEYGYWGQGTQVTVSS is ____.
high polyreactivity

Next entry: QVQLVESGGGLVQAGGSLRLSCAASGIIFAYYAMGWYRQAPGKERELVAAISDNGGRTFYADSVKGRFTISRDNAKNTVYLQMNSLKPEDTAVYYCAAVVYSEYYYWGQGTQVTVSS
low polyreactivity

Next entry: QVQLVESWGGLVQAGGSLRLSCAASGRTFDGNAMGWYRQAPGKEGEFVATISTDGGSTHYADSVKGRFTISRDNAKNTVYLQMNSLKPEDTAVYYCAADTPWYDDNYDYWGQGTQVTVSS
low polyreactivity

Next entry: QVQLVESGGGLVQAGGSLRLSCAASGYIFKYNAMGWYIQAPGKERELVAAISGRGGSTYYADSVKGRFTISRDNAKNTVYLQMNSLKPEDTAVYYCNADYQARRYNYWGQGTQVTVSS
high polyreactivity

Next entry: QVQLVESGGGLVQAGGSLRLSCAASGSIFERYAMGWYRQSPGKEREFVATITSGGGRTYYADSVKGRFTISRENAKNTVYLQMNSLKPEDTAVYYCGAASYRRQPFNYWGQGTQVTVSS
high polyreactivity

Next entry: QVQLVESGGGLVQAGGSLRLSCAASGSTFVTYVMGWYRQAPGKERELVADIRRSGGSTYYADSVKGRFTISRDNAKNTVYLQMNSLKPEDTAVYYCAAYQYYYVNEVRRYYYWGQGTQVTVSS
high polyreactivity

Next entry: QVQLVESGGGLVQAGGSLRLSCAASGSTFSDNAMGGYRQAAGKERELVAAISWTGGSTYADSVKGRFTISRDNAKNTVYLQMNRLKPEDTAVYYCAAGGDFDGNYWGQGTQVTVSS
low polyreactivity

Next entry: QVQLVESGGGLVQAGGSLRLSCAASGSIFPAYAMGWYRQAPGKERELVAAITRGGSTDYADSVKGRFTISRDNAKNTVYLQMNSLKPEDTAVYYCATGDGPSLFDYWGQGTQVTVSS
low polyreactivity

Next entry: QVQLVESGGGLVQAGGSLRLSCAASGFIFRYYSMAWYRQAPGKERELVAAISGSGGGTYYADSVKGRFTISRDYAKNTVYLQMNSLKPEDTAVYYCNARKVYSRRYKYDYWGQGSQVTVSS
high polyreactivity

Next entry: QVQLLESGGGLVQAGGSLRLSCAASGLTFNTYAMGWYIQAPGKERELVAAISRGGGSTYYADSVKGRFTISRDNAKNTVYLQMNSLKPEDTAVYYCNAEKRASYLLYDYWGQGTQVTVSS
high polyreactivity

Next entry: QVQVVESGGGLVQAGGSLRLSCAASGFTYGNNGMGWYRQAPGKERELVATISWSGGSTYADSVKGRFTISRDNAKNTVYLQMNSLKPEDTAVYYCAARYFVYYQEVDYWGQGTQVTVSS
low polyreactivity

Next entry: QVQLVESGGGLVQAGGSLRLSCAASGSTFFPYAMGWYRQAPGKERELVAAIRWSGGRTYYADSVKGRFTISRDNAKNTVYLQMNRLKPEDTAVYYCNAGRYKYTDDYWGQGTQVTVSS
high polyreactivity

Next entry: QVQLVESGGGLVQAGGSLRLSCAASGIIIWYNTMGWYRQAPGKEREFVARISRRVGSTYYADSVKGRFTISRDNAKNTVYLQMNSLKPEDTAVYYCAASPYQVRYQWGNRLDYWGQGTQVTVSS
high polyreactivity

Next entry: QVQLVESGGGLVQAGGSLRLSCAASGFIFYLYTMGWYRQAPGKERELVAAITKSGTRTYYADSVKGRFTISRDNAKNTVYLQMNSLKPEDTAVYYCAAEWGSSYRWGMDYWGQGTQVTVSS
high polyreactivity

Next entry: QVQLVESGGGLVQAGGSLRLSCAASGFTFRVYAMGWYRQAPGKERELVAAISSGGSTNYADSVKGRFTISRDNAKNTVYLQMNSLKPEDTAVYYCAARQRYYSERPQYSGFYYWGQGTQVTVSS
high polyreactivity

Next entry: QVQLVESGGGLVQSGDSLRLSCAASGIILLSYAMGWYIHAPGKERELVAAITSGGGTNYADSVKGRFTISRDNAKNTVYLQMNSLKPEDTAVYYCAVGAYAGLYYYWGQGTQVTVSS
low polyreactivity

Next entry: QVQLVESGGGLVQAGGSLRLSCAASGLDYYAMGWYRQAPGKERELVAAIDWSGVSTYYADSVKGRFTISRDNAKNSVYLQMNSLKPEDTAVYYCAALYDGWPRVSYGLGEYGYWGQGTQVTVSS
low polyreactivity

###

experiment: yeast display, Sf9 membrane polyspecificity reagent, FACS + sequencing; frameworks hold sequencing errors

residue-codes	polyreactivity (PSR sort gate)
QVQLGESGGGLVQAGGSLRLSCAASGITFNGYAMGWSRQAPGKERQLVASAIRGTSGSTYYADSVKGRFTISRDNAKNTDYLQMNSLKPEDTTVYYCNADIVIQGVIYYYRNFEYWGQGTQVTVSS	low polyreactivity
QVQLVESGGGLVQAGGSLRLSCAASGSIFGYYAMGWYRQAPGKERELVAAINSSGGSTYYADSVKGRFTISRDNAKNTVYLQMNSLKPDDTAVYYCAVRTRYKFNYWGQGTQVTVSS	low polyreactivity

###

assay: yeast display, Sf9 membrane polyspecificity reagent, FACS + sequencing; frameworks hold sequencing errors
measured-attribute: polyreactivity (PSR sort gate)

// worked examples, polyreactivity (PSR sort gate) included
residue-codes	polyreactivity (PSR sort gate)
QVQHVESGGGLVQAGGSLRLSCAASGFIFRYYAMGWYRQAPGKERELVAAITWNGGSTYYADSVKGRFTISRDNAKNTVYLQLNSLKPEDTAVYYCADVPYTPSPYTYGYWGQGTQVSVSS	high polyreactivity
QVQLVESGGGLVQAGGSLRLSCAASGRIFDKYTMGWYRQAPGKERELVAAISKSGSGTFYADSVKGRFTISRDNAKNTVYLQMNSLKPEDTAVYYCARVYTVGTGRSWRLDYWGQGTQVTVSS	high polyreactivity
QVQLVESGGGLVQAGGSLRLSCAASGNTFAFNAMGWYRQATGKEREFVAAISYSGVSTYYADSVKGRFTISRDNAKNTVYLQMNSLKPEDTAVYYCAARYGWYKYWYDYWGQGTQVTVSS	high polyreactivity
QVQLVESGGGLVQAGGSLRLSSAASGFTFRAYAMGWYRQAPGKERELVAGISTRGGRTYYADSVKGRFTISRDNAKNTVYLQMNSLKPEDTAVYYCNAVDKTGKYDYWGQGPQVTVSS	high polyreactivity
QVQLVESGGGLVQAGGSLRLSCAASGYIFVRNAMGWYRQAPGKERELVAAISGSGGSTYYADSVKGRFTISRDNAKNTVYLQMNSLKPEDTAVYYCAADYATVTWRGIAYDYWGQGTQVTVSS	low polyreactivity
QVQLVESGGGLVQAGSSLRLSCAASGSTYAFYALGWYRQAPGKAMELVDAITSGGTTNYADSVKGRFTISRDNAKNTVYFQMISLKPEDTAVYYCNAYYLGWYRVRAVTGYDYWGQGTQVTLSS	low polyreactivity

Let us examine a further case.
Fill in the blank: the reported polyreactivity (PSR sort gate) of QVQLVESGGGLVQAGGSLRLSCAASGSTFKPYTMGWYRQAPGKERELVAGISSVDSTYYADSVKGRFTISRDNAKNTVYLQMNSLKPEDTAVYYCNKRKWPTFTYAMNYWGQGTQVTVSS is ____.
low polyreactivity

###

assay: yeast display, Sf9 membrane polyspecificity reagent, FACS + sequencing; frameworks hold sequencing errors
measured-attribute: polyreactivity (PSR sort gate)

// worked examples, polyreactivity (PSR sort gate) included
residue-codes	polyreactivity (PSR sort gate)
QVQLVESGGGLVQAGGSLRLSCAASGIIFRRYAMGWYRQAPGKERELVAAITGSGGSTYYADSVKGRFTISRDNAKNTVYLQMNSLKPEDTAVYYCAAQSLLRFASSRYNSWGQGTQVTVSS	high polyreactivity
QVQLVESGGGLVQAGGSLRLSCAASGSIFGKYTMGWYRQAPGKEREFVAAITSVGSTNYADSVKVRFTISRDNAKNTVYLQMNSLKPVDTAVYYCAADTIGYHYWYDYWGQGTQVTVSS	low polyreactivity
QVQLVESGGGLVQAGGSLRLSCAASGSIFSSYAMGWYRQAPGKERELVATITSSGGSTYYADSVKGRFTISRDNAKNTVYLQMNSLKPEVTAVYYCAASYHTSYSLRSYYYWGQGTQVTVSS	low polyreactivity
QVQLVESGGGLVQAGGSLRLICAASGITFYAYPMGWYRQAPGKERELVAAITSSGSSTYYADSVKGRFTISLDNAKNTVYFQMNSLKPEDTAVFYCAATRGTKFYWGQGTQVTVSS	high polyreactivity

Fill in the blank: the reported polyreactivity (PSR sort gate) of QVQLVESGGGLVQAGGSLRLSCAASGFTFVYYAMGWYRQAPGKEREFAYYADSVKGRFTISRDNAKNTVYLQMNSLKPEDTAVYYCNAAEDEGDRPITQVGYDYWGQGTQVTVSS is ____.
low polyreactivity
